FYI, the data here is from PubChem BioAssay AID258.

# Tested on: CD2F1 mice, L1210 leukemia sc, survival T/C
# assayProtocol: NCI In Vivo Anticancer Drug Screen. Data for tumor model L1210 Leukemia (subcutaneous) in CD2F1 (CDF1) mice
# settings: endpoint: median survival time; dose: 3.0 mg/kg/injection; schedule: Q01DX009 (ip); vehicle: saline
Toxic doses and inconclusive results are not listed. The calls were made as follows: active = survival T/C of 150% or more; inactive = T/C below 125% in these data.
Output constraint: value belongs to active, inactive

// known answers, use as guide
Prompt: Recorded call for N[C@@H](Cc1ccc(N(CCCl)CCCl)cc1)C(=O)O ?
Response: active

Prompt: Per the records of this test, what outcome belongs to NCCCNCCCCNC(=O)C(O)NC(=O)CC(O)CCCCN=C(N)N (centres undefined) ?
Response: active

Prompt: // outcome(item) with item = NCCCNCCCCNC(=O)C(O)NC(=O)CCCCCCN=C(N)N (centres undefined)
Response: active

Continuing:
Prompt: Identify the outcome logged in this assay for the compound shown: COc1cccc2c1C(=O)c1c(O)c3c(c(O)c1C2=O)C[C@@](O)(C(C)=O)C[C@@H]3OC1CC(N)C(O)C(C)O1 (some centres undefined)
Response: inactive
